Tested on: SW872
Assay: relative viability vs DMSO control (72 h) (fraction); higher = more viable cells
Settings: 0.01372 µM
readout_kind: relative viability

Examples with their reported relative viability follow.
molecule | assayed_target | result
CCN1C(=O)N(c2c(F)c(OC)cc(OC)c2F)Cc2cnc3[nH]c(CN4CCOCC4)cc3c21 | SW872 | 0.999
CNC(=O)c1ccccc1Sc1ccc2c(/C=C/c3ccccn3)n[nH]c2c1 | SW872 | 1.05
COc1cc(CCc2cc(NC(=O)c3ccc(N4CC(C)NC(C)C4)cc3)n[nH]2)cc(OC)c1 (stereo not drawn) | SW872 | 0.987
COc1cc(OC)c(/C=C/S(=O)(=O)Cc2ccc(OC)c(NCC(=O)O)c2)c(OC)c1 | SW872 | 1.05
CC1(COc2ccc3c(c2)ncn3-c2ccc3cccc(N4CCC(N)CC4)c3n2)COC1 | SW872 | 1.05

Query CN1CCN(c2ccc(C(=O)Nc3n[nH]c4ccc(Cc5cc(F)cc(F)c5)cc34)c(NC3CCOCC3)c2)CC1 yields relative viability of 1.05

Value of relative viability reported for the molecule Clc1ccc(Nc2nnc(Cc3ccncc3)c3ccccc23)cc1 is 0.994

Noted for O=C(Nc1nc2cccc(-c3ccc(CN4CCS(=O)(=O)CC4)cc3)n2n1)C1CC1 : its relative viability reads 1.04
